# assayedTarget: pre-existing anti-scFv903 antibodies in human serum H26 (human)
# testSummary: competition ADA bridging ELISA
So I've got a bunch of binders here, and I need their signal change in competition ELISA (% reduction in OD) values.
Returns: string containing the number followed by the unit.

Identify measured signal change in competition ELISA (% reduction in OD) corresponding to scFv105 (scFv) scFv: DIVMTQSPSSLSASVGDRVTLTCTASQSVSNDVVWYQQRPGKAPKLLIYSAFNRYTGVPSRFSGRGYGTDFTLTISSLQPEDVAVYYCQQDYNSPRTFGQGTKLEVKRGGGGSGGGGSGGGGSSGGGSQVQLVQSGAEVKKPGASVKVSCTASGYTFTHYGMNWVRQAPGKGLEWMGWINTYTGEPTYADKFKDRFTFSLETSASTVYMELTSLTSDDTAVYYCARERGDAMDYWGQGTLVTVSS
-80%

Identify measured signal change in competition ELISA (% reduction in OD) corresponding to scFv 961 (scFv) scFv: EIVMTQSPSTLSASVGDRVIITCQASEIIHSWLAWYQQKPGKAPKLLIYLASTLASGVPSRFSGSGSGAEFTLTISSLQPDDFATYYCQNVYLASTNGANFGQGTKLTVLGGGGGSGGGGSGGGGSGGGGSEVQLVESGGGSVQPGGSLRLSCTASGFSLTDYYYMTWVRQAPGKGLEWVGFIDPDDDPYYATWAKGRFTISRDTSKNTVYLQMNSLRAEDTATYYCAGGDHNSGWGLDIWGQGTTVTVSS
0%

Identify measured signal change in competition ELISA (% reduction in OD) corresponding to scFv 791 (scFv) scFv: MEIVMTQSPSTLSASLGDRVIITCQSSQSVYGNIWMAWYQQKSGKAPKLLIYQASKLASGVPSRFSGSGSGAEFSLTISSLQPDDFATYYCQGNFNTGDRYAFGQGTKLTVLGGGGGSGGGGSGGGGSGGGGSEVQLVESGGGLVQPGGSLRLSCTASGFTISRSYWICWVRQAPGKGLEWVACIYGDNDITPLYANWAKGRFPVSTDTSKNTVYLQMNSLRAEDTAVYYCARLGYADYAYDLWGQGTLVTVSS
-97%
